Hey, just so you know, these numbers are from paper PMC12301304.

Target: CYP2c13 (Rattus norvegicus, UniProt P20814)
Sequence (P20814 whole entry): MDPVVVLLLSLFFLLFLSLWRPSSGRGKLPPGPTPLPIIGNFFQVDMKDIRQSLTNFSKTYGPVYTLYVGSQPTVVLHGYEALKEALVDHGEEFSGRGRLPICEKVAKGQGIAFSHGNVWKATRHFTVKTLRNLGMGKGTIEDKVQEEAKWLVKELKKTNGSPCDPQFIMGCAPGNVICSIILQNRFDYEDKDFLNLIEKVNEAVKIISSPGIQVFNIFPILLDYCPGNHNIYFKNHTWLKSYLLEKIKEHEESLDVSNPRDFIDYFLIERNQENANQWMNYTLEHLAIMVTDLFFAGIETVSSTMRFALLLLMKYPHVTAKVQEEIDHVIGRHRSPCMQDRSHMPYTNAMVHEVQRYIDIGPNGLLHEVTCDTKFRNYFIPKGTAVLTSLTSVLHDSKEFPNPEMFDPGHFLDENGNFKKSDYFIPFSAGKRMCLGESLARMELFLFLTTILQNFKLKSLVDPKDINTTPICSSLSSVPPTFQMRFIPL
Experiment: RLM incubation: metabolic clearance rate of mephenytoin (CYP2c13)
Conditions: RLM 0.5 mg/mL, 30 min 37°C, inhibitor added, blank control 15.97 ± 0.68, n = 3
Experimental: The effect of the Zhicaowu–Hezi combination on CYP450 enzymes in RLM was evaluated by assessing the metabolic clearance rates of theophylline, metoprolol, bupropion, mephenytoin (CYP2c13), chlorzoxazone, testosterone, and diclofenac. On day 15, the rats were humanely euthanized, and liver tissues were excised for microsomal preparation. […] The protein concentration of the prepared RLM was determined using a bicinchoninic acid protein assay kit. […]
I'd be grateful if you could share measured CYP2c13(%) metabolic clearance rate of probe drug for these entries.
Response body: numeric value in %, unit text excluded.

Ask: Record lookup: for CYP2c13 (Rattus norvegicus, UniProt P20814), what CYP2c13(%) metabolic clearance rate of probe drug belongs to CC(=O)N1CCN(c2ccc(OCC3COC(Cn4ccnc4)(c4ccc(Cl)cc4Cl)O3)cc2)CC1 (stereo not shown) ?
Reply: 17.26

Ask: Record lookup: for CYP2c13 (Rattus norvegicus, UniProt P20814), what CYP2c13(%) metabolic clearance rate of probe drug belongs to `Nc1ccc(S(=O)(=O)Nc2ccnn2-c2ccccc2)cc1` ?
Reply: 16.47

Ask: Record lookup: for CYP2c13 (Rattus norvegicus, UniProt P20814), what CYP2c13(%) metabolic clearance rate of probe drug belongs to `S=P(N1CC1)(N1CC1)N1CC1` ?
Reply: 14.43

Ask: Record lookup: for CYP2c13 (Rattus norvegicus, UniProt P20814), what CYP2c13(%) metabolic clearance rate of probe drug belongs to `O=c1cc(-c2ccccc2)oc2c1ccc1ccccc12` ?
Reply: 16.65
